Measured On: T1, cyno PD-L1 (cyno)
T1 construct: Soluble analyte in BLI
Measurement Protocol: BLI (Octet), antibody on AHC biosensor, cyno PD-L1 as analyte
Measurement Label: pKd
Please keep in mind that pKd is minus log10 of the molar concentration; only the number is needed.

Reported pKd, binder antibody A10 (antibody, V domains shown, Tested as full-length mAb made in CHO cells; also called L10H10) VH: QVQLVESGGGVVQPGRSLRLSCAASGFTFSSYGMHWVRQAPGKGLEWVAVIWYDGINKYYADSVKGRFTISRDNSKNTLYLQMNSLRAEDTAVYYCARDSTASPFDYWGQGTLVTVSS VL: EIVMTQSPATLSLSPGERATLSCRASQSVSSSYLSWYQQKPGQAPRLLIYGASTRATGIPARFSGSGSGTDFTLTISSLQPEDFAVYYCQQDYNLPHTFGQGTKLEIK : ____
7.56

Values compiled from patent US20220056137A1.
